biological target: MMP-8 Catalytic domain (Homo sapiens); construct: MMP-8 Catalytic domain (^99Phe˜^262Gly); His-tag; Enterokinase digestion site; test: Assay for inhibitory activities on MMPs (fluorogenic peptide substrate), MMP-8
measured property: IC50

// worked examples, IC50 included
C[C@@H](NS(=O)(=O)c1ccc(-c2nc(-c3ccc(F)cc3)no2)cc1)C(=O)O :: > 1000 nM
Cc1ccc(-c2noc(-c3ccc(S(=O)(=O)N[C@@H](C(=O)O)C(C)C)cc3)n2)s1 :: 88 nM
O=C(O)[C@@H](Cc1ccccc1)NS(=O)(=O)c1ccc(-c2nc(-c3ccccc3)no2)cc1 :: > 1000 nM

## Task Name the reported IC50 value associated with the compound `Cc1ccc(-c2noc(-c3ccc(S(=O)(=O)N[C@H](C)C(=O)O)cc3)n2)cc1`
## Result > 1000 nM

## Task Name the reported IC50 value associated with the compound `O=C(O)[C@@H](Cc1c[nH]c2ccccc12)NS(=O)(=O)c1ccc(-c2nc(-c3ccccc3)no2)cc1`
## Result > 1000 nM

## Task Name the reported IC50 value associated with the compound `CC(C)[C@@H](NS(=O)(=O)c1ccc(-c2nc(-c3cccs3)no2)cc1)C(=O)O`
## Result 610 nM

## Task Name the reported IC50 value associated with the compound `CCc1ccc(-c2noc(-c3ccc(S(=O)(=O)N[C@H](Cc4ccccc4)C(=O)O)cc3)n2)cc1`
## Result > 1000 nM

----------
Target: MMP-2 (Homo sapiens, UniProt P08253)
Sequence (P08253 110-660): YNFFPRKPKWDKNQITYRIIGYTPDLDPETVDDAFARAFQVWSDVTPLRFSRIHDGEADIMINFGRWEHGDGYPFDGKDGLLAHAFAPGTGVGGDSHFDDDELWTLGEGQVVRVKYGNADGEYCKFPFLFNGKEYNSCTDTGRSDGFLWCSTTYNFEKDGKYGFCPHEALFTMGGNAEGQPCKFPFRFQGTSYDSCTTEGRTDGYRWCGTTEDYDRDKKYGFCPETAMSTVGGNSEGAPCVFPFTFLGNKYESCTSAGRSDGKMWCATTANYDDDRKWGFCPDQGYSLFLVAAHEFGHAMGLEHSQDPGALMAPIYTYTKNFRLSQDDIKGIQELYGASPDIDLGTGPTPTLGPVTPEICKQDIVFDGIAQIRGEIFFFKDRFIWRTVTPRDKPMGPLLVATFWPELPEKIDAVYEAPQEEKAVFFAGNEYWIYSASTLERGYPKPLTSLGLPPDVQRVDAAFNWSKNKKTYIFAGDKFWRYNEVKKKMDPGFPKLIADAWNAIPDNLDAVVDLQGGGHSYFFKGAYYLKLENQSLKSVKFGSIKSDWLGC
measured property: IC50 (nM)

Cc1ccc(-c2noc(-c3ccc(S(=O)(=O)N[C@@H](Cc4ccccc4)C(=O)O)cc3)n2)cc1 :: 51
C[C@@H](NS(=O)(=O)c1ccc(-c2nc(-c3ccc(F)cc3)no2)cc1)C(=O)O :: 50
CC(C)[C@@H](NS(=O)(=O)c1ccc(-c2nc(-c3cccs3)no2)cc1)C(=O)O :: 30

P. Cc1ccc(-c2noc(-c3ccc(S(=O)(=O)N[C@H](Cc4ccccc4)C(=O)O)cc3)n2)cc1
Q. O=C(O)[C@@H](Cc1ccccc1)NS(=O)(=O)c1ccc(-c2nc(-c3ccccc3)no2)cc1
## Task API: POST /compare with P and Q ; response names the item with higher IC50. Returns: label corresponding to the selected item.
## Result Q

A. O=C(O)[C@@H](Cc1c[nH]c2ccccc12)NS(=O)(=O)c1ccc(-c2nc(-c3ccccc3)no2)cc1
B. C[C@@H](NS(=O)(=O)c1ccc(-c2nc(-c3ccccc3)no2)cc1)C(=O)O
## Task API: POST /compare with A and B ; response names the item with higher IC50. Returns: label corresponding to the selected item.
## Result B

----------
tested on: Lewis mouse lung carcinoma cells; assay: Antitumor efficacy using artificial lung metastasis of Lewis mouse lung carcinoma; format: in vivo, BDF1 mice; conditions: experiment 3-1; 200 mg/kg oral, five times; lung tumor nodules at day 14
The following compounds are shown together with reported Number of colonies (Mean ± SD) values.
Give your answer as a number; write no unit.

## Task Name the reported Number of colonies (Mean ± SD) value associated with the compound CCc1ccc(-c2noc(-c3ccc(S(=O)(=O)N[C@H](Cc4ccccc4)C(=O)O)cc3)n2)cc1 [Compound A-7]
## Result 21.7

## Task Name the reported Number of colonies (Mean ± SD) value associated with the compound Cc1ccc(-c2noc(-c3ccc(S(=O)(=O)N[C@@H](Cc4ccccc4)C(=O)O)cc3)n2)cc1 [Compound A-8]
## Result 15.7

----------
The following compounds are shown together with reported Number of colonies (Mean ± SD) values.
System: Lewis mouse lung carcinoma cells
Test: Antitumor efficacy using artificial lung metastasis of Lewis mouse lung carcinoma
Format: in vivo, BDF1 mice
Details: experiment 3-2; 20 mg/kg oral, five times; lung tumor nodules at day 14
Procedure: Lewis mouse lung carcinoma cells (4×10^5 cells) were inoculated into the tail vein of BDF1 mice. […] The doses of the compounds were 20 and 200 mg/kg or 2 and 20 mg/kg. At 14 day after tumor inoculation, tumor nodules formed in the lung of the treated mice were counted and the antitumor efficacy was evaluated.
Give your answer as a number; write no unit.

// worked examples, Number of colonies (Mean ± SD) included
C[C@@H](NS(=O)(=O)c1ccc(-c2nc(-c3ccc(F)cc3)no2)cc1)C(=O)O :: 40.8
O=C(O)[C@@H](Cc1c[nH]c2ccccc12)NSOOc1ccc(-c2nnn(-c3ccccc3)n2)cc1 [Compound B-1, reference compound] :: 34.8
O=C(O)[C@@H](Cc1c[nH]c2ccccc12)NS(=O)(=O)c1ccc(-c2nc(-c3ccccc3)no2)cc1 :: 38.7

## Task Query the reported Number of colonies (Mean ± SD) for Lewis mouse lung carcinoma cells; item: `CC(C)[C@@H](NS(=O)(=O)c1ccc(-c2nc(-c3cccs3)no2)cc1)C(=O)O`
## Result 41.8

----------
The following compounds are shown together with reported IC50 values.
molecular target: MMP-8 Catalytic domain (Homo sapiens, UniProt P22894); construct: MMP-8 Catalytic domain (^99Phe˜^262Gly); His-tag; Enterokinase digestion site; experiment: Assay for inhibitory activities on MMPs (fluorogenic peptide substrate), MMP-8
Sequence (P22894 99-262): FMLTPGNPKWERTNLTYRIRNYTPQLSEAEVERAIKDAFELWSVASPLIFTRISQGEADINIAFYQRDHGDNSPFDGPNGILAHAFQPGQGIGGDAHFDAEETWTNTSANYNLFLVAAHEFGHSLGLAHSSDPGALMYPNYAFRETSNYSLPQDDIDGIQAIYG

// worked examples, IC50 included
Cc1ccc(-c2noc(-c3ccc(S(=O)(=O)N[C@@H](Cc4ccccc4)C(=O)O)cc3)n2)cc1 :: > 1000 nM
C[C@@H](NS(=O)(=O)c1ccc(-c2nc(-c3ccc(Cl)cc3)no2)cc1)C(=O)O :: > 1000 nM
C[C@@H](NS(=O)(=O)c1ccc(-c2nc(-c3ccccc3)no2)cc1)C(=O)O :: > 1000 nM

Shift focus to the following entry.
## Task Name the reported IC50 value associated with the compound `Cc1ccc(-c2noc(-c3ccc(S(=O)(=O)N[C@H](Cc4ccccc4)C(=O)O)cc3)n2)cc1`
## Result 775 nM

----------
tested on: Lewis mouse lung carcinoma cells; assay: Antitumor efficacy using artificial lung metastasis of Lewis mouse lung carcinoma; type: in vivo, BDF1 mice; settings: experiment 3-1; 200 mg/kg oral, five times; lung tumor nodules at day 14
The following molecules are shown together with reported Number of colonies (Mean ± SD) values.
Give your answer as a number; write no unit.

// worked examples, Number of colonies (Mean ± SD) included
Cc1ccc(-c2noc(-c3ccc(S(=O)(=O)N[C@H](C)C(=O)O)cc3)n2)cc1 :: 13.3
C[C@@H](NS(=O)(=O)c1ccc(-c2nc(-c3ccc(Cl)cc3)no2)cc1)C(=O)O :: 23.3
C[C@@H](NS(=O)(=O)c1ccc(-c2nc(-c3ccccc3)no2)cc1)C(=O)O :: 25.2

## Task Name the reported Number of colonies (Mean ± SD) value associated with the molecule O=C(O)[C@@H](Cc1c[nH]c2ccccc12)NSOOc1ccc(-c2nnn(-c3ccccc3)n2)cc1 [Compound B-1, reference compound]
## Result 23.0
